tested on: 362531-283-R-J2-PDC complex spheroid viability; experiment: Anticancer human tumor 362531-283-R-J2-PDC patient-derived colon adenocarcinoma cell line growth inhibition [RAS]; settings: curve of first compound; second compound 0.000949 µM
Each record here notes measured IC50.
MEASUREMENT_TYPE: IC50

[[record]]
molecule = "O=C(c1ccc(F)c(F)c1Nc1ccc(I)cc1F)N1CC(O)([C@@H]2CCCCN2)C1 + CCn1c(-c2cc(N3CCN(C)CC3)cnc2C(C)OC)c2c3cc(ccc31)-c1csc(n1)CC(NC(=O)C1CC1C)C(=O)N1CCCC(N1)C(=O)OCC(C)(C)C2"
measurement_type = "IC50"
value = "523 nM"

[[record]]
molecule = "C=CC(=O)Nc1cc(Nc2nccc(-c3cn(C)c4ccccc34)n2)c(OC)cc1N(C)CCN(C)C + CCn1c(-c2cc(N3CCN(C)CC3)cnc2C(C)OC)c2c3cc(ccc31)-c1csc(n1)CC(NC(=O)C1CC1C)C(=O)N1CCCC(N1)C(=O)OCC(C)(C)C2"
measurement_type = "IC50"
value = "> 1000 nM"

[[record]]
molecule = "O=C(c1ccc(F)c(F)c1Nc1ccc(I)cc1F)N1CC(O)([C@@H]2CCCCN2)C1 + CCn1c(-c2cccnc2C(C)OC)c2c3cc(ccc31)N1CCOC(CC(NC(=O)C(C(C)C)N(C)C(=O)C3(F)CCN(C(=O)C#CC(C)(C)N(C)C)CC3)C(=O)N3CCCC(N3)C(=O)OCC(C)(C)C2)C1"
measurement_type = "IC50"
value = "628 nM"

[[record]]
molecule = "NC1c2ccccc2OC12CCN(c1cnc3c(N4CCCc5ncccc54)n[nH]c3n1)CC2 (centres undefined) + CCn1c(-c2cc(N3CCN(C)CC3)cnc2C(C)OC)c2c3cc(ccc31)-c1csc(n1)CC(NC(=O)C1CC1C)C(=O)N1CCCC(N1)C(=O)OCC(C)(C)C2"
measurement_type = "IC50"
value = "2040 nM"


---

system: 362531-283-R-J2-PDC complex spheroid viability; assay: Anticancer human tumor 362531-283-R-J2-PDC cell line growth inhibition [RAS]; conditions: second compound 0.0316 µM; first compound 0.3 µM; stronger effect = lower value;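 note: spheroids exposed to the agents for 7 days before readout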;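 for viability, T/C: luminescence viability as percent of DMSO vehicle control wells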
Parameter: viability, T/C. Scope: all listed entries.
MEASUREMENT_TYPE: viability, T/C

[[record]]
compound = "CCc1c2c(nc3ccc(O)cc13)-c1cc3c(c(=O)n1C2)COC(=O)[C@]3(O)CC + C#Cc1c(F)ccc2cc(O)cc(-c3ncc4c(N5CC6CCC(C5)N6)nc(OCC56CCCN5CC(F)C6)nc4c3F)c12"
value = "18%"

[[record]]
compound = "CCc1c2c(nc3ccc(O)cc13)-c1cc3c(c(=O)n1C2)COC(=O)[C@]3(O)CC + C=CC(=O)N1CCN(c2nc(OCC3CCCN3C)nc3c(F)c(-c4nc(N)cc(C)c4C(F)(F)F)c(Cl)cc23)C(C)C1"
value = "20.7%"

[[record]]
compound = "CC1(C)CCC(Nc2ncc(C(F)(F)F)c(-c3c[nH]c4c(P(C)(C)=O)c(C#N)ccc34)n2)CN1 (centres undefined) + C=CC(=O)N1CCN(c2nc(OCC3CCCN3C)nc3c(F)c(-c4nc(N)cc(C)c4C(F)(F)F)c(Cl)cc23)C(C)C1"
value = "96.5%"

[[record]]
compound = "CC1(C)CCC(Nc2ncc(C(F)(F)F)c(-c3c[nH]c4c(P(C)(C)=O)c(C#N)ccc34)n2)CN1 (centres undefined) + C#Cc1c(F)ccc2cc(O)cc(-c3ncc4c(N5CC6CCC(C5)N6)nc(OCC56CCCN5CC(F)C6)nc4c3F)c12"
value = "114%"


---

viability, T/C: recorded values
test system: 362531-283-R-J2-PDC complex spheroid viability; experiment: Anticancer human tumor 362531-283-R-J2-PDC cell line growth inhibition [RAS]; details: second compound 0.03 µM; first compound 1 µM; stronger effect = lower value;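 note: spheroids exposed to the agents for 7 days before readout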;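 for viability, T/C: luminescence viability as percent of DMSO vehicle control wells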
MEASUREMENT_TYPE: viability, T/C (%)

[[record]]
compound = "CC(Nc1ccc2c(c1)OCCn1cc(N3C(=O)OCC3C(F)F)nc1-2)C(N)=O (centres undefined) + CCn1c(-c2cccnc2C(C)OC)c2c3cc(ccc31)N1CCOC(CC(NC(=O)C(C(C)C)N(C)C(=O)C3(F)CCN(C(=O)C#CC(C)(C)N(C)C)CC3)C(=O)N3CCCC(N3)C(=O)OCC(C)(C)C2)C1"
system = "362531-283-R-J2-PDC complex spheroid viability"
value = 65.3

[[record]]
compound = "NC1c2ccccc2OC12CCN(c1cnc3c(N4CCCc5ncccc54)n[nH]c3n1)CC2 (centres undefined) + CCn1c(-c2cccnc2C(C)OC)c2c3cc(ccc31)N1CCOC(CC(NC(=O)C(C(C)C)N(C)C(=O)C3(F)CCN(C(=O)C#CC(C)(C)N(C)C)CC3)C(=O)N3CCCC(N3)C(=O)OCC(C)(C)C2)C1"
system = "362531-283-R-J2-PDC complex spheroid viability"
value = 76.4

[[record]]
compound = "CCC(CC)c1cc(NC2CCC(N)C2)n2nccc2n1 (centres undefined) + CCn1c(-c2cccnc2C(C)OC)c2c3cc(ccc31)N1CCOC(CC(NC(=O)C(C(C)C)N(C)C(=O)C3(F)CCN(C(=O)C#CC(C)(C)N(C)C)CC3)C(=O)N3CCCC(N3)C(=O)OCC(C)(C)C2)C1"
system = "362531-283-R-J2-PDC complex spheroid viability"
value = 89

[[record]]
compound = "C=CC(=O)N1CCN(c2nc(OCC3CCCN3C)nc3c(F)c(-c4nc(N)cc(C)c4C(F)(F)F)c(Cl)cc23)C(C)C1 (centres undefined) + CCn1c(-c2cc(N3CCN(C)CC3)cnc2C(C)OC)c2c3cc(ccc31)-c1csc(n1)CC(NC(=O)C1CC1C)C(=O)N1CCCC(N1)C(=O)OCC(C)(C)C2"
system = "362531-283-R-J2-PDC complex spheroid viability"
value = 101


---

system: 362531-283-R-J2-PDC complex spheroid viability; experiment: Anticancer human tumor 362531-283-R-J2-PDC cell line growth inhibition [RAS]; settings: curve of first compound; second compound 0.316 µM;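 note: spheroids exposed to the agents for 7 days before readout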
pIC50: −log10 of the molar value.
Listing of recorded pIC50 by entry.
MEASUREMENT_TYPE: pIC50

[[record]]
compound = "Nc1ccn(C2OC(CO)C(O)C2(F)F)c(=O)n1 (stereo unspecified) + C=CC(=O)N1CCN(c2nc(OCC3CCCN3C)nc3c(F)c(-c4nc(N)cc(C)c4C(F)(F)F)c(Cl)cc23)C(C)C1"
system = "362531-283-R-J2-PDC complex spheroid viability"
censoring_sign = "="
value = 6.74

[[record]]
compound = "Nc1ccn(C2OC(CO)C(O)C2(F)F)c(=O)n1 (stereo unspecified) + C#Cc1c(F)ccc2cc(O)cc(-c3ncc4c(N5CC6CCC(C5)N6)nc(OCC56CCCN5CC(F)C6)nc4c3F)c12"
system = "362531-283-R-J2-PDC complex spheroid viability"
censoring_sign = "="
value = 6.93

[[record]]
compound = "CC(C)NCC(C(=O)N1CCN(c2ncnc3c2C(C)CC3O)CC1)c1ccc(Cl)cc1 (stereo unspecified) + C#Cc1c(F)ccc2cc(O)cc(-c3ncc4c(N5CC6CCC(C5)N6)nc(OCC56CCCN5CC(F)C6)nc4c3F)c12"
system = "362531-283-R-J2-PDC complex spheroid viability"
censoring_sign = "<"
value = 5.00

[[record]]
compound = "C=CC(=O)Nc1cc(Nc2nccc(-c3cn(C)c4ccccc34)n2)c(OC)cc1N(C)CCN(C)C + C#Cc1c(F)ccc2cc(O)cc(-c3ncc4c(N5CC6CCC(C5)N6)nc(OCC56CCCN5CC(F)C6)nc4c3F)c12"
system = "362531-283-R-J2-PDC complex spheroid viability"
censoring_sign = "="
value = 6.80

[[record]]
compound = "NC1c2ccccc2OC12CCN(c1cnc3c(N4CCCc5ncccc54)n[nH]c3n1)CC2 (stereo unspecified) + C=CC(=O)N1CCN(c2nc(OCC3CCCN3C)nc3c(F)c(-c4nc(N)cc(C)c4C(F)(F)F)c(Cl)cc23)C(C)C1"
system = "362531-283-R-J2-PDC complex spheroid viability"
censoring_sign = "="
value = 5.12

[[record]]
compound = "C=CC(=O)N1CCN(c2nc(OCC3CCCN3C)nc3c(F)c(-c4nc(N)cc(C)c4C(F)(F)F)c(Cl)cc23)C(C)C1 (stereo unspecified) + C#Cc1c(F)ccc2cc(O)cc(-c3ncc4c(N5CC6CCC(C5)N6)nc(OCC56CCCN5CC(F)C6)nc4c3F)c12"
system = "362531-283-R-J2-PDC complex spheroid viability"
censoring_sign = "<"
value = 6.00

[[record]]
compound = "CCN1CCN(Cc2ccc(Nc3ncc(F)c(-c4cc(F)c5nc(C)n(C(C)C)c5c4)n3)nc2)CC1 + C=CC(=O)N1CCN(c2nc(OCC3CCCN3C)nc3c(F)c(-c4nc(N)cc(C)c4C(F)(F)F)c(Cl)cc23)C(C)C1"
system = "362531-283-R-J2-PDC complex spheroid viability"
censoring_sign = "<"
value = 6.00

[[record]]
compound = "CC(=O)OC12COC1CC(O)C1(C)C(=O)C(O)C3=C(C)C(OC(=O)C(O)C(NC(=O)OC(C)(C)C)c4ccccc4)CC(O)(C(OC(=O)c4ccccc4)C21)C3(C)C (stereo unspecified) + C#Cc1c(F)ccc2cc(O)cc(-c3ncc4c(N5CC6CCC(C5)N6)nc(OCC56CCCN5CC(F)C6)nc4c3F)c12"
system = "362531-283-R-J2-PDC complex spheroid viability"
censoring_sign = "="
value = 6.85

[[record]]
compound = "CC(C)NCC(C(=O)N1CCN(c2ncnc3c2C(C)CC3O)CC1)c1ccc(Cl)cc1 (stereo unspecified) + C=CC(=O)N1CCN(c2nc(OCC3CCCN3C)nc3c(F)c(-c4nc(N)cc(C)c4C(F)(F)F)c(Cl)cc23)C(C)C1"
system = "362531-283-R-J2-PDC complex spheroid viability"
censoring_sign = "<"
value = 5.00

[[record]]
compound = "C[C@@H](NC(=O)c1ncnc(N)c1Cl)c1ncc(C(=O)Nc2cc(C(F)(F)F)c(Cl)cn2)s1 + C=CC(=O)N1CCN(c2nc(OCC3CCCN3C)nc3c(F)c(-c4nc(N)cc(C)c4C(F)(F)F)c(Cl)cc23)C(C)C1"
system = "362531-283-R-J2-PDC complex spheroid viability"
censoring_sign = "<"
value = 5.00

[[record]]
compound = "NC1c2ccccc2OC12CCN(c1cnc3c(N4CCCc5ncccc54)n[nH]c3n1)CC2 (stereo unspecified) + C#Cc1c(F)ccc2cc(O)cc(-c3ncc4c(N5CC6CCC(C5)N6)nc(OCC56CCCN5CC(F)C6)nc4c3F)c12"
system = "362531-283-R-J2-PDC complex spheroid viability"
censoring_sign = "="
value = 7.12

[[record]]
compound = "CC(C)n1nc(-c2ccc3oc(N)nc3c2)c2c(N)ncnc21 + C#Cc1c(F)ccc2cc(O)cc(-c3ncc4c(N5CC6CCC(C5)N6)nc(OCC56CCCN5CC(F)C6)nc4c3F)c12"
system = "362531-283-R-J2-PDC complex spheroid viability"
censoring_sign = "="
value = 7.69

[[record]]
compound = "CCC(CC)c1cc(NC2CCC(N)C2)n2nccc2n1 (stereo unspecified) + C=CC(=O)N1CCN(c2nc(OCC3CCCN3C)nc3c(F)c(-c4nc(N)cc(C)c4C(F)(F)F)c(Cl)cc23)C(C)C1"
system = "362531-283-R-J2-PDC complex spheroid viability"
censoring_sign = "="
value = 5.33

[[record]]
compound = "C[C@@H](NC(=O)c1ncnc(N)c1Cl)c1ncc(C(=O)Nc2cc(C(F)(F)F)c(Cl)cn2)s1 + C#Cc1c(F)ccc2cc(O)cc(-c3ncc4c(N5CC6CCC(C5)N6)nc(OCC56CCCN5CC(F)C6)nc4c3F)c12"
system = "362531-283-R-J2-PDC complex spheroid viability"
censoring_sign = "<"
value = 5.00

[[record]]
compound = "Cc1nc(N2CCC3(CC2)COC(C)C3N)c(CO)nc1Sc1ccnc(N)c1Cl (stereo unspecified) + C=CC(=O)N1CCN(c2nc(OCC3CCCN3C)nc3c(F)c(-c4nc(N)cc(C)c4C(F)(F)F)c(Cl)cc23)C(C)C1"
system = "362531-283-R-J2-PDC complex spheroid viability"
censoring_sign = "<"
value = 5.00

[[record]]
compound = "CC(=O)OC12COC1CC(O)C1(C)C(=O)C(O)C3=C(C)C(OC(=O)C(O)C(NC(=O)OC(C)(C)C)c4ccccc4)CC(O)(C(OC(=O)c4ccccc4)C21)C3(C)C (stereo unspecified) + C=CC(=O)N1CCN(c2nc(OCC3CCCN3C)nc3c(F)c(-c4nc(N)cc(C)c4C(F)(F)F)c(Cl)cc23)C(C)C1"
system = "362531-283-R-J2-PDC complex spheroid viability"
censoring_sign = "="
value = 6.71

[[record]]
compound = "O=C(c1ccc(F)c(F)c1Nc1ccc(I)cc1F)N1CC(O)([C@@H]2CCCCN2)C1 + C=CC(=O)N1CCN(c2nc(OCC3CCCN3C)nc3c(F)c(-c4nc(N)cc(C)c4C(F)(F)F)c(Cl)cc23)C(C)C1"
system = "362531-283-R-J2-PDC complex spheroid viability"
censoring_sign = "="
value = 6.42

[[record]]
compound = "CC1(C)CCC(Nc2ncc(C(F)(F)F)c(-c3c[nH]c4c(P(C)(C)=O)c(C#N)ccc34)n2)CN1 (stereo unspecified) + C#Cc1c(F)ccc2cc(O)cc(-c3ncc4c(N5CC6CCC(C5)N6)nc(OCC56CCCN5CC(F)C6)nc4c3F)c12"
system = "362531-283-R-J2-PDC complex spheroid viability"
censoring_sign = "<"
value = 6.52

[[record]]
compound = "O=C(c1ccc(F)c(F)c1Nc1ccc(I)cc1F)N1CC(O)([C@@H]2CCCCN2)C1 + C#Cc1c(F)ccc2cc(O)cc(-c3ncc4c(N5CC6CCC(C5)N6)nc(OCC56CCCN5CC(F)C6)nc4c3F)c12"
system = "362531-283-R-J2-PDC complex spheroid viability"
censoring_sign = "="
value = 6.46

[[record]]
compound = "C=CC(=O)Nc1cc(Nc2nccc(-c3cn(C)c4ccccc34)n2)c(OC)cc1N(C)CCN(C)C + C=CC(=O)N1CCN(c2nc(OCC3CCCN3C)nc3c(F)c(-c4nc(N)cc(C)c4C(F)(F)F)c(Cl)cc23)C(C)C1"
system = "362531-283-R-J2-PDC complex spheroid viability"
censoring_sign = "<"
value = 6.00

[[record]]
compound = "CC1(O)CCCC1n1c(=O)c(C(F)F)cc2cnc(NC3CCN(S(C)(=O)=O)CC3)nc21 (stereo unspecified) + C#Cc1c(F)ccc2cc(O)cc(-c3ncc4c(N5CC6CCC(C5)N6)nc(OCC56CCCN5CC(F)C6)nc4c3F)c12"
system = "362531-283-R-J2-PDC complex spheroid viability"
censoring_sign = "="
value = 5.51

